- target.of.assay: Muscarinic acetylcholine receptor
- protocol.notes: Ability to inhibit [3H]oxotremorine-M (OXO-M) binding in rat cerebral cortex
- Format: tissue-based
Binary label based on IC50 with cut-off 4 nM: below gives Condition met, not below gives Condition not met.

Query: Please check: IC50 for Cc1nncc(C23CCCN(CC2)C3)n1 (stereo not given) , strictly under 4 nM or not?
Reply: Condition not met

Query: Please check: IC50 for COc1nncc([C@H]2CN3CC[C@H]2C3)n1 , strictly under 4 nM or not?
Reply: Condition not met

Query: Please check: IC50 for Cc1nncc(C23CCN(CC2)C3)n1 , strictly under 4 nM or not?
Reply: Condition not met

----------
- target.of.assay: Muscarinic acetylcholine receptor
- protocol.notes: Ability to inhibit [3H]quinuclidinyl benzilate(QNB) binding in rat cerebral cortex, activity expressed as IC50.
- Type: tissue-based
Binary label based on IC50 with cut-off 1000 nM: below gives met, not below gives not met.

See these solved cases before continuing.
compound=COc1nncc([C@H]2CN3CC[C@H]2C3)n1 group_label="not met"
compound="Cc1nncc(C2CN3CCC2CC3)n1 (stereo not given)" group_label=met

Query: Please check: IC50 for c1nncc([C@H]2CN3CC[C@H]2C3)n1 , strictly under 1000 nM or not?
Reply: not met

Query: Please check: IC50 for Cc1nncc(C23CCCN(CC2)C3)n1 (stereo not given) , strictly under 1000 nM or not?
Reply: not met

----------
- target.of.assay: Muscarinic acetylcholine receptor
- protocol.notes: Ability to inhibit [3H]oxotremorine-M (OXO-M) binding in rat cerebral cortex
- Type: tissue-based
endpoint: log10(IC50) (log10 of the value in nM)
Would you kindly interpret these values as log10 of IC50 expressed in nM?

Previously resolved entries follow.
molecule=c1nncc([C@H]2CN3CC[C@H]2C3)n1 observed=0.58
molecule=Nc1nncc([C@H]2CN3CC[C@H]2C3)n1 observed=0.32
molecule=Cc1nncc([C@H]2CN3CC[C@H]2C3)n1 observed=0.59
molecule=Cc1noc([C@H]2CN3CC[C@H]2C3)n1 observed=0.45
molecule=CSc1nncc([C@H]2CN3CC[C@H]2C3)n1 observed=2.46

Query: If you can, please state the reported log10(IC50) value of CCc1nncc([C@H]2CN3CC[C@H]2C3)n1 .
Reply: 1.66

Query: If you can, please state the reported log10(IC50) value of Cc1nncc(C2CN3CCC2CC3)n1 (configuration not stated) .
Reply: 0.60

----------
- target.of.assay: Muscarinic acetylcholine receptor
- protocol.notes: Ability to inhibit [3H]quinuclidinyl benzilate(QNB) binding in rat cerebral cortex, activity expressed as IC50.
- Type: tissue-based
IC50 values for the molecules below.
Reply with just the number (in nM).

Previously resolved entries follow.
smiles_data=Cc1nncc([C@H]2CN3CC[C@H]2C3)n1 observed=410
smiles_data=CCc1nncc([C@H]2CN3CC[C@H]2C3)n1 observed=410

Query: If you can, please state the reported IC50 value of Nc1nncc([C@H]2CN3CC[C@H]2C3)n1 .
Reply: 990

Query: If you can, please state the reported IC50 value of Cc1nncc(C23CCN(CC2)C3)n1 .
Reply: 4100

Query: If you can, please state the reported IC50 value of Cc1noc([C@H]2CN3CC[C@H]2C3)n1 .
Reply: 1000

Query: If you can, please state the reported IC50 value of CSc1nncc([C@H]2CN3CC[C@H]2C3)n1 .
Reply: 1300
